Biological target: Ubiquitin carboxy-terminal hydrolase L1 (UCHL1) (Homo sapiens, UniProt P09936)
Construct: recombinant UCHL1
Sequence (P09936 1-220): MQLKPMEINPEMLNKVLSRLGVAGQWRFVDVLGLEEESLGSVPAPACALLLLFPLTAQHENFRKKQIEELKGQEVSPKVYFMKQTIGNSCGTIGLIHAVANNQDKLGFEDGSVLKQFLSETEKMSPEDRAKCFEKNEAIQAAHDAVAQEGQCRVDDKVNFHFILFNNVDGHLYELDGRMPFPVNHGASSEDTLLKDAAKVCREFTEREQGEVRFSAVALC
Assay: fluorescence polarization assay with Ub-Lys-TAMRA, […] min preincubation; covalent adduct by LC-ESI-MS; cellular HTRF
Assay type: biochemical
observed property: IC50 (µM)
Answers are plain numbers, in µM.

QUERY: Lab note: record IC50 of `N#CN1CC[C@H](C(=O)Nc2ncc(-c3ccccc3)s2)C1` tested on Ubiquitin carboxy-terminal hydrolase L1 (UCHL1) (Homo sapiens, UniProt P09936).
RESULT: 0.58
